Hey, just so you know, these numbers are from paper PMC3285443.

target_of_assay: purified human recombinant sEH (Homo sapiens)
Sequence (P34913 whole entry): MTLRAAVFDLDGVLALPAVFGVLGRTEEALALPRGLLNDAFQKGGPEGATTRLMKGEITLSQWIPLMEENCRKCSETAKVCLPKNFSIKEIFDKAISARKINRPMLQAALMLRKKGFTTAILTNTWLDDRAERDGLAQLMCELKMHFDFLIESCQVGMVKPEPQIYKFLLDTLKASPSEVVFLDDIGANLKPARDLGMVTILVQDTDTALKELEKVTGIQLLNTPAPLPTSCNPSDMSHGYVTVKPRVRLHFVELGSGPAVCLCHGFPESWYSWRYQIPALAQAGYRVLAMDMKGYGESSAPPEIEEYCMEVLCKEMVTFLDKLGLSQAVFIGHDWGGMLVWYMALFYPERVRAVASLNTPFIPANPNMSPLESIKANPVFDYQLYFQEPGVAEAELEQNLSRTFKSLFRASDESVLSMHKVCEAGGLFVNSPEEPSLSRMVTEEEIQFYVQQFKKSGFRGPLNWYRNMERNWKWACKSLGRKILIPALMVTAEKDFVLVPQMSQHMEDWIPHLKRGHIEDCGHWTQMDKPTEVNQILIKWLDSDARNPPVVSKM
Type: biochemical
details: IC50 on human sEH in buffer, buffer
measured_metric: IC50 (nM)
Field: numeric (nM). Do not append units.

Returns the measured IC50 for the input compound. Input: CS(=O)(=O)N1CCC(NC(=O)Nc2ccc(OC(F)(F)F)cc2)CC1
150

* * *

test_summary: compartmental pharmacokinetics after oral gavage
details: female, Labrador retriever, dog, plasma, 0.3 mg/kg
measured_metric: Cmax (nM)
// units = nM; emit number, no label

Need Cmax, item CCOCCOCCOCCCCCNC(=O)NC12CC3CC(CC(C3)C1)C2
20

* * *

test_summary: in vivo
details: female, Labrador retriever, dog, iv
measured_metric: clearance
Note: state the figure and append the unit.

Which clearance reading was recorded for the compound CC(=O)N1CCC(NC(=O)NC23CC4CC(CC(C4)C2)C3)CC1 ?
40 mL/min/kg
